Would you kindly list pKd for each of these binders?
Target: T1, Recombinant Human DLL3 Protein (amino acids Ala27-Ala479, cat #9749-DL, R&D Systems) (human, UniProt Q9NYJ7 27-479)
T1 construct: Bought protein
T1 sequence: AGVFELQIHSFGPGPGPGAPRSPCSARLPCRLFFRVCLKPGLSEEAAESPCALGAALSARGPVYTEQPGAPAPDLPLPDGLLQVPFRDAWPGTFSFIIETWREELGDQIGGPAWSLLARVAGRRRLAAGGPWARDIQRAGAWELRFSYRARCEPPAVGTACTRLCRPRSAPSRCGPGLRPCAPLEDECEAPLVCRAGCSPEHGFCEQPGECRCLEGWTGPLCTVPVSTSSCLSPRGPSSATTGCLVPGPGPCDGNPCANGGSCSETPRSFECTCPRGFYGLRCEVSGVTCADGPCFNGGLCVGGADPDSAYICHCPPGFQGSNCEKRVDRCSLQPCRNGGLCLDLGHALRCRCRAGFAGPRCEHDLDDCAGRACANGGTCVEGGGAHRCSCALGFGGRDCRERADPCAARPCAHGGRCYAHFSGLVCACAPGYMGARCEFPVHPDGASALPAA
Assay: BLI, Octet HTX, 25 C; mAb on anti-mouse Fc sensors, DLL3 as analyte from 200 nM
Scale: negative log10 of molar concentration, which is what pKd denotes.

Asked: Need pKd, item E23 (antibody, V domains shown, loaded on anti-mouse Fc sensors in BLI) VH: QVQLVQSGAEVRKPGASVKVSCKASGYTFTGYYMHWVRQAPGQGLEWMGWINSYSGGANYAQKFQDRVTMTRDTSVSTASMELSRLRSDDTAVYYCARDGSGWYGSYFDFWGQGTLVTVSS VL: DIVMTQTPLSSPVTLGQPASISCRSSQSLVHSDGNTYLSWLQQRPGQPPRLLIYKISNRFSGVPDRFSGSGAGTDFTLKISRVEAEDVGFYYCIQTTQFPLTFGGGTKVEIK
Given back: 9.29

Asked: Then this binder: L22 (antibody, V domains shown) VH: EVQLLESGGGLVQPGGSLRLSCAASGFTFSSYAMGWVRQTPGKGLEWVSTISGRGGDTYYADSVKGRFTISRDNSKNTLYLQMNSLRAEDTAIYYCAKERGLGFDYWGQGTLVTVSS VL: DIVMTQTPLSLPVTPGEPASISCRSSQSLLDSDDGNTYLDWYLQKPGQSPQLLIYTLSYRASGVPDRFSGSGSGTDFTLKISRVEAEDVGVYYCMQHLEFPLTFGGGTKVEIK
Given back: 8.45

Asked: Input B22 (antibody, V domains shown, Purified hybridoma monoclonal antibody; loaded on anti-mouse Fc sensors in BLI) VH: EVQLVESGGGLVQPGGSLRLSCAASGFTFNNFWMSWVRQAPGKGLEWVANIKQDGSEKYYVDSVKGRFTISRDNAKNSLYLQMNSLRAEDTAVYYCARESYFDLWGRGTLVTVSS VL: QAVVTQESALTTSPGETVTLTCRSSTGAVTTSNYANWVQEKPDHLFTGLIGGTNNRAPGVPARFSGSLIGDKAALTITGAQTEDEAIYFCALWYSNRWVFGGGTKLTVL
Given back: 8.74

Asked: Try this binder too: B2 (antibody, V domains shown) VH: QVQLVQSGAEVKKPGASVKVSCKASGYTFTSYYMHWVRQAPGQGLEWMGIINPSGGSTSYAQKFRGRVTMTRDTSTSTVYMELSSLRSEDTAVYYCARGDYDILTDYYYNMDVWGQGTTVTVSS VL: DIQMTQSPSAMSASVGDRVTITCRASQGISNYLAWFQQKPGKVPKRLIYAASSLQSGVPSRFSGSGSGTEFTLTISSLQPEDFATYYCLQHNSYPYTFGQGTKLEIK
Given back: 8.84

Asked: Another binder: O24 (antibody, V domains shown, the description prints the designation as '024' (zero); also called 024) VH: QVQLVQSGAEVKKPGASVKVSCKASGYTFTSYYLHWVRQAPGHGLEWMAIINPSGGSTSYAQKFLGRVTMTRDTSTNTVYMELSSLRSEDTAVYYCARERQQLDYYYFAMDVWGQGTTVTVSS VL: DIQMTQSPSSLSASVGDRVTITCRASQGISNYLAWFQQKPGKAPKSLIYAASSLQSGVPSKFSGSGSGTDFTLTISSLQPEDFATYYCQQYNSYPPTFGQGTKVEIK
Given back: 8.89
